The measured values listed here are drawn from ChEMBL document CHEMBL1147462.

# target system: Melatonin receptor (Homo sapiens) (UniProt P48039+P49286)
# Sequence (P48039 whole entry): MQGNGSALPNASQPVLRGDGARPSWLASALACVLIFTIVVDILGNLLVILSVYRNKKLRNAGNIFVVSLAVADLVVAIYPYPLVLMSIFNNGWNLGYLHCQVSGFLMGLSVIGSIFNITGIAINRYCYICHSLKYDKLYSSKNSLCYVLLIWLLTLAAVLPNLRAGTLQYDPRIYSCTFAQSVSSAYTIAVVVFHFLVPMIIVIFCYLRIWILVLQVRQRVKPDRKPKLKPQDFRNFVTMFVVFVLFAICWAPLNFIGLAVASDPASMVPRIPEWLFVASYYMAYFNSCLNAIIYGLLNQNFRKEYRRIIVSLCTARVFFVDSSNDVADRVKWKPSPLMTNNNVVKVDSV
# assay protocol: Selectivity (pC2-PC1) was determined
# Format: protein assay
Property: Selectivity; scope: individual molecules
I only need the number, thanks.

CC(=O)NCCc1c(Cc2ccccc2)oc2ccc(O)cc12 ... 0.852
COc1cccc(Cc2oc3ccc(OC)cc3c2CCNC(C)=O)c1 ... 2.1
COc1ccc2oc(Cc3ccccc3)c(CCNC(=O)CI)c2c1 ... 1.32
COc1ccc2oc(CC3CCCCC3)c(CCNC(C)=O)c2c1 ... 1.43
COc1ccc2oc(Cc3cc(C(F)(F)F)cc(C(F)(F)F)c3)c(CCNC(C)=O)c2c1 ... 0.147

Given the molecule `COc1ccc2oc(Cc3cccc(F)c3)c(CCNC(C)=O)c2c1` , what is its reported Selectivity? 0.513

Given the molecule `CC(=O)NCCc1c(Cc2ccccc2)oc2ccccc12` , what is its reported Selectivity? 1.17

Given the molecule `COc1ccc2oc(Cc3cccc(Cl)c3)c(CCNC(C)=O)c2c1` , what is its reported Selectivity? 1.51

###

# target system: Melatonin receptor type 1B (Homo sapiens)
# assay protocol: Binding affinity against melatonin receptor type 1B; further: unit not given here
The label depends only on pC1: condition met if it is at least 3, condition not met if it is smaller.

Here are 5 molecules together with their reported answers.
COc1ccc2oc(CCCc3ccccc3)c(CCNC(C)=O)c2c1 ... condition not met
COc1ccc2oc(Cc3ccccc3OC)c(CCNC(C)=O)c2c1 ... condition met
COc1ccc2oc(CC3CCCCC3)c(CCNC(C)=O)c2c1 ... condition not met
COc1cccc(Cc2oc3ccc(OC)cc3c2CCNC(C)=O)c1 ... condition met
CCc1ccc2oc(Cc3cccc(OC)c3)c(CCNC(C)=O)c2c1 ... condition not met

Next up:
I'd appreciate it if you could say whether `COc1ccc2oc(-c3ccccc3)c(CCNC(=O)Cc3ccco3)c2c1` has pC1 at least equal to 3. condition not met

###

# target system: Melatonin receptor type 1A (Homo sapiens)
# assay protocol: Binding affinity against Melatonin receptor type 1A; further: unit not given here
The label depends only on pC1: Condition met if it is at least 2, Condition not met if it is smaller.

Here are 8 compounds together with their reported answers.
CC(=O)NCCc1c(Cc2ccccc2)oc2ccccc12 ... Condition not met
COc1ccc2oc(Cc3c(Cl)cccc3Cl)c(CCNC(C)=O)c2c1 ... Condition not met
COc1ccc(Cc2oc3ccc(OC)cc3c2CCNC(C)=O)cc1 ... Condition not met
COc1ccc2oc(-c3ccccc3)c(CCNC(=O)Cc3ccco3)c2c1 ... Condition not met
COc1ccc2oc(Cc3cccc(C(F)(F)F)c3)c(CCNC(C)=O)c2c1 ... Condition not met
COc1ccc2oc(Cc3ccccc3)c(CCNC(=O)c3ccco3)c2c1 ... Condition not met
CCCC(=O)NCCc1c(Cc2ccccc2)oc2ccc(OC)cc12 ... Condition met
CCc1ccc2oc(Cc3ccccc3)c(CCNC(C)=O)c2c1 ... Condition not met

I'd appreciate it if you could say whether `COc1ccc2oc(Cc3ccccc3)c(CCNC(=O)CI)c2c1` has pC1 at least equal to 2. Condition met

I'd appreciate it if you could say whether `C/C=C/C(=O)NCCc1c(-c2ccccc2)oc2ccc(OC)cc12` has pC1 at least equal to 2. Condition met

I'd appreciate it if you could say whether `C=CCC(=O)NCCc1c(-c2ccccc2)oc2ccc(OC)cc12` has pC1 at least equal to 2. Condition met

I'd appreciate it if you could say whether `COc1ccc2oc(Cc3cccc(F)c3)c(CCNC(C)=O)c2c1` has pC1 at least equal to 2. Condition met

I'd appreciate it if you could say whether `CC(=O)NCCc1c(Cc2ccccc2)oc2ccc(O)cc12` has pC1 at least equal to 2. Condition not met

I'd appreciate it if you could say whether `C=CC(=O)NCCc1c(Cc2ccccc2)oc2ccc(OC)cc12` has pC1 at least equal to 2. Condition not met

###

Property: Selectivity; scope: individual molecules
# target system: Melatonin receptor (Homo sapiens) (UniProt P48039+P49286)
# assay protocol: Selectivity (pC2-PC1) was determined
# Type: protein assay
I only need the number, thanks.

Some solved cases for reference:
CCc1ccc2oc(Cc3cccc(OC)c3)c(CCNC(C)=O)c2c1 ... 1.23
C=CC(=O)NCCc1c(Cc2ccccc2)oc2ccc(OC)cc12 ... 1.89
COc1ccc2oc(Cc3ccccc3OC)c(CCNC(C)=O)c2c1 ... 2.1
CCc1ccc2oc(Cc3ccccc3)c(CCNC(C)=O)c2c1 ... 0.893

Let's switch to this molecule now.
Given the molecule `COc1ccc2oc(Cc3ccccc3)c(CCNC(=O)c3ccco3)c2c1` , what is its reported Selectivity? 1.28

###

# target system: Melatonin receptor (Homo sapiens) (UniProt P48039+P49286)
# assay protocol: Selectivity (pC2-PC1) was determined
# Type: protein assay
value kind: Selectivity
I only need the number, thanks.

COc1ccc2oc(CCCc3ccccc3)c(CCNC(C)=O)c2c1 ... 1.32
C/C=C/C(=O)NCCc1c(-c2ccccc2)oc2ccc(OC)cc12 ... 0.682

Let's switch to this compound now.
Given the compound `C=CCC(=O)NCCc1c(Cc2ccccc2)oc2ccc(OC)cc12` , what is its reported Selectivity? 1.77

###

# target system: Melatonin receptor type 1B (Homo sapiens) (UniProt P49286)
# Sequence (P49286 whole entry): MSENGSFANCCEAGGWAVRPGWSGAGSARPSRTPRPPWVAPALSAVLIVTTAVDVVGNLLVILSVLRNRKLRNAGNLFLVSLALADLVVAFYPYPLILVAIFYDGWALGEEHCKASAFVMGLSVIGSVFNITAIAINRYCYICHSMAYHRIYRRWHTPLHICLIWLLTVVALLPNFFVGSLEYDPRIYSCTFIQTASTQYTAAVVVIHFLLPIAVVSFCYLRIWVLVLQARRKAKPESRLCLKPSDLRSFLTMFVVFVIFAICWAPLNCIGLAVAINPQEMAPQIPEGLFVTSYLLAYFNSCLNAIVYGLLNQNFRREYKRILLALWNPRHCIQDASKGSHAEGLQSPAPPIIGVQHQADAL
# assay protocol: Binding affinity against melatonin receptor type 1B; further: unit not given here
value kind: pC1
I only need the number, thanks.

Some solved cases for reference:
C=CC(=O)NCCc1c(Cc2cccc(OC)c2)oc2ccc(OC)cc12 ... 2.56
C=CCC(=O)NCCc1c(-c2ccccc2)oc2ccc(OC)cc12 ... 4.7
C=CCC(=O)NCCc1c(Cc2ccccc2)oc2ccc(OC)cc12 ... 4.22
COc1ccc2oc(Cc3ccccc3)c(CCNC(=O)c3ccco3)c2c1 ... 1.44
C=CC(=O)NCCc1c(-c2ccccc2)oc2ccc(OC)cc12 ... 5
COc1ccc2oc(Cc3cc(C(F)(F)F)cc(C(F)(F)F)c3)c(CCNC(C)=O)c2c1 ... 0.469

Given the compound `CCc1ccc2oc(Cc3ccccc3)c(CCNC(C)=O)c2c1` , what is its reported pC1? 2.08

Given the compound `CC(=O)NCCc1c(Cc2ccccc2)oc2ccccc12` , what is its reported pC1? 1.98
